- measured target: T1, mouse RBPJ S358R, conserved core (residues 53-474) (mouse, UniProt P31266 53-474, S358R)
- T1 construct: RBPJ (Rbpj), mouse, conserved core, residues 53-474, with S358R; Variant found in human AOS patients (human S332R), put into the mouse protein by mutagenesis; also called analogous to human S332R; source: pGEX-6P-1 plasmid, QuikChange mutagenesis
- T1 sequence (P31266 53-474 S358R): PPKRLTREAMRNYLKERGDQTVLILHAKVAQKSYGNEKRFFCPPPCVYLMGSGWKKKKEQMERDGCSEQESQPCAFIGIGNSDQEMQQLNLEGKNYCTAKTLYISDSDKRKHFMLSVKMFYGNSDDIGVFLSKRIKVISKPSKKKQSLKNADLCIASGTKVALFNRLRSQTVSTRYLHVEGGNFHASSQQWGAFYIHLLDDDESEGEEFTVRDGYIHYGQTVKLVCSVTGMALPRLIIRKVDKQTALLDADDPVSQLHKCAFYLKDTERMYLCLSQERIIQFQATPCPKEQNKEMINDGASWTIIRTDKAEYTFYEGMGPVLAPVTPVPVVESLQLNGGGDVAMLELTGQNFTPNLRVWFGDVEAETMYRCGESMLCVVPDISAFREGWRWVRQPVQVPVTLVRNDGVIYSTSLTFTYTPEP
- procedure details: ITC; MicroCal VP-ITC, 25 °C, 50 mM sodium phosphate pH 6.5, 150 mM NaCl; ligand (RAM peptide or SMT3-SHARP) in the syringe, RBPJ in the cell: 100 µM into 10 µM (R91G), 50 µM into 5 µM (F92V), 40 µM into 4 µM (S358R); 20 injections of 14 µL; 1-site binding model; mean and SD of triplicates
- run parameters: both partners purified
outcome measure: pKd
Just so you know, pKd here is -log10 of the concentration in molar units; reply with that number alone.

Challenge: For the binder SMT3-SHARP 2776-2833, fusion protein with the region of the human SHARP co-repressor that binds RBPJ (domain or fragment, UniProt Q96T58 2776-2833, looked up, SHARP (SPEN), human, residues 2776-2833; not shown: SMT3, N-terminal, kept) RASANENSRFHPGSMPVIDDRPADAGSGAGLRVNTSEGVVLLSYSGQKTEGPQRISAK , what pKd is on record?
Response given: 8.10

Challenge: Do the same for VLLSRKRRRQHGQLWFPEGFKVSEASKK (NOTCH1, human, RAM domain of the intracellular domain, residues 1754-1781; also called NICD; NICD1; source: synthetic peptide) please
Response given: 7.88
